Attribution: patent US10336762B2

target: UniProt:Q9NWZ3; test: biochemical; type: biochemical; conditions: IRAK4 enzyme, TR-FRET, 500 μM ATP
Sequence (Q9NWZ3 whole entry): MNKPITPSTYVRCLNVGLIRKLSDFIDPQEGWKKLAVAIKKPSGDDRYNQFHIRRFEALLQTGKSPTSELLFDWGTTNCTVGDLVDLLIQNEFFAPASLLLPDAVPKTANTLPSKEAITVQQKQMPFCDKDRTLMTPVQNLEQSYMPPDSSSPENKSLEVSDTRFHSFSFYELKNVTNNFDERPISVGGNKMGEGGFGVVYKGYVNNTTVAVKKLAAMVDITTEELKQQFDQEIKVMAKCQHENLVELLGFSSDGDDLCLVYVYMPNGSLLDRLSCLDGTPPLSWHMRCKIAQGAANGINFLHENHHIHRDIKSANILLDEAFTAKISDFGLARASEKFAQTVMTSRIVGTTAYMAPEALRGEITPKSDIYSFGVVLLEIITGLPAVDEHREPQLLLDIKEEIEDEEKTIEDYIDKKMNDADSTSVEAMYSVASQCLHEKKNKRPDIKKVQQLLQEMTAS
readout_label: IC50 (nM)
Expressed in nM, but write only the number.

Some solved cases for reference:
{"compound": "COC(=O)N1CC[C@H](n2cc(Nc3cc(-c4ccc5cc(C#N)cnn45)ncc3C(=O)NC[C@@H](F)C(C)(C)O)cn2)C1", "readout_label": "IC50", "value": 1}
{"compound": "CC(C)(O)[C@H](F)CNC(=O)c1cnc(-c2ccc3cc(C#N)cnn23)cc1N[C@@H]1C[C@H]2CC[C@@H]1O2", "readout_label": "IC50", "value": 1}
{"compound": "CN(C)C(=O)O[C@H]1CC[C@@H](Nc2cc(-c3ccc4cc(C#N)cnn34)ncc2C(=O)NC[C@@H](F)C(C)(C)O)CC1", "readout_label": "IC50", "value": 1000}
{"compound": "CC(=O)NC[C@@H]1CCCN1c1ccc(Nc2cc(-c3ccc4cc(C#N)cnn34)ncc2C(=O)NC[C@@H](F)C(C)(C)O)cn1", "readout_label": "IC50", "value": 2}

Query string: Endpoint output: IC50 of CC(C)(O)[C@H](F)CNC(=O)c1cnc(-c2ccc3cc(C#N)cnn23)cc1NC1CCC(=O)NC1 (some centres unmarked) . Value?
Result string: 3

Query string: Look up IC50: `CC(C)(O)[C@H](F)CNC(=O)c1cnc(-c2ccc3cc(C#N)cnn23)cc1N[C@H]1CC[C@@H](NC(=O)C(F)(F)F)CC1`
Result string: 19

Query string: Given the entry `CC(C)(O)[C@H](F)CNC(=O)c1cnc(-c2ccc3cc(C#N)cnn23)cc1Nc1cccc(F)c1` , report its measured IC50.
Result string: 1

Query string: If you can, please state the reported IC50 value of `CNC(=O)O[C@H]1C[C@@](C)(Nc2cc(-c3ccc4cc(C#N)cnn34)ncc2C(=O)NC[C@@H](F)C(C)(C)O)C1` .
Result string: 6

Query string: May I ask what IC50 has been recorded for `CC(C)(O)[C@H](F)CNC(=O)c1cnc(-c2ccc3cc(C#N)cnn23)cc1N[C@H]1CC[C@H](NC(=O)C2CC2)CC1` ?
Result string: 1

Query string: State the recorded IC50 for this entry: `CN(C)C(=O)NC12CCC(Nc3cc(-c4ccc5cc(C#N)cnn45)ncc3C(=O)NC[C@@H](F)C(C)(C)O)(CC1)CC2`
Result string: 1
